# TGI listing for each entry below
- Test system: NCI/ADR-RES ovarian
- test_method_notes: NCI tumour cell line growth inhibition, 48 h

Recorded results for 5 molecules are shown here.
molecule	TGI
CCOc1cccc(/C=N/NC(=O)Cc2ccc(Nc3ccnc(C(F)(F)F)c3)cc2)c1O	> 100 µM
COC12C=C/C(=C(/C(=O)OCc3csc(SC)n3)C(=O)CCCCCCCCC3(OC)C=C/C(=C(/C(=O)OCc4cnc(SC)s4)C(=O)CCCCCCCC1)O3)O2 (stereo not drawn)	> 100 µM
Brc1ccc(/C(N=N/C(=N\Sc2ccccc2)c2ccc(Br)cc2)=N/Sc2ccccc2)cc1	> 100 µM
C=C[C@@]1(C)CC(=O)[C@]2(O)[C@@]3(C)[C@@H](O)CCC(C)(C)[C@@H]3[C@H](O)[C@@H](OC(C)=O)[C@@]2(C)O1	> 100 µM
Nc1ccc2c(SCC(=O)Nc3ccccc3-c3ccccc3NC(=O)CSc3c4ccccc4nc4cc(N)ccc34)c3ccccc3nc2c1	> 100 µM

Proceeding to the next molecule to report its TGI.
Looking for the measured TGI of "Cc1cc(S(N)(=O)=O)c(S/C(=N\NS(=O)(=O)c2ccccc2)c2ccc(Cl)c(Cl)c2)cc1Cl" , can you help?
77.6 µM

----------
- Test system: HCT-15 colon
- test_method_notes: NCI tumour cell line growth inhibition, 48 h; in the data active = GI50 below about 0.43 µM; inactive = the rest
Reply using exactly one outcome from 1 for active, 0 for inactive

compound	answer_label
CC(=O)OC1Oc2cc(C)c(C)cc2-c2oc(=O)c(-c3ccccc3)cc21 (stereo not given)	1
Cc1nc2cc(Nc3nc(Nc4ccc(F)cc4)nc(-c4ccc(Cl)cc4)n3)ccc2n1Cc1ccccc1	0
C/C(=N\O)[C@H]1CC[C@@]2(C)[C@@H]3CC[C@H]4C(C)(C)/C(=N/O)CC[C@@]45CC35CC[C@]12C (stereo not given in full)	0
N#Cc1c(-c2ccc(Cl)cc2)csc1NC(=O)Nc1cccc(C(F)(F)F)c1	0

For the next question, use this compound.
What outcome does the record of this test show for "NCCNc1nc2ccccc2c2c(=O)c3cc(F)cc(Cl)c3sc12" ?
0

----------
- Test system: NCI-H23 lung
- test_method_notes: NCI tumour cell line growth inhibition, 48 h; in the data active = GI50 below about 0.43 µM; inactive = the rest
Hello, when you answer, please use one of the following outcomes: active, inactive

Before answering, review these 3 worked examples.
compound	answer_label
COc1ccccc1-c1nccc(COc2ccccc2C[C@@H](Oc2ncnc3sc(-c4ccc(F)cc4)c(-c4ccc(OCCN5CCN(C)CC5)c(Cl)c4C)c23)C(=O)O)n1	inactive
Cc1ccc2c(C(C[N+](=O)[O-])c3ccco3)c(-c3ccccc3)[nH]c2c1 (centres undefined)	inactive
COc1ccc(-c2cn(-c3cc(OC)c(OC)c(OC)c3)c(=O)n2-c2ccccc2)cc1	inactive

Hi team, can someone confirm the assay call for "CN1CCN(CCCOc2ccc3ncnc(Nc4ccc(Oc5cccc(F)c5)c(Cl)c4)c3c2)CC1" ?
inactive

Any idea what this test logged for "N#Cc1c(-c2ccc(Cl)cc2)csc1NC(=O)Nc1cccc(C(F)(F)F)c1" ?
inactive

Query: recorded result category for "Cc1nc2cc(Nc3nc(Nc4ccc(F)cc4)nc(-c4ccc(Cl)cc4)n3)ccc2n1Cc1ccccc1" in this test
inactive

----------
- Tested on: T-47D breast
- test_method_notes: NCI tumour cell line growth inhibition, 48 h
measurement_kind: TGI

molecule	measurement_kind	observed_value
Cc1ccc(S(=O)c2ccc([N+](=O)[O-])c3nonc23)cc1 (centres undefined)	TGI	4.59 µM

Request: TGI, test system T-47D breast, entry "Fc1ccc(OCc2ccc3nc(-c4ccccc4)c(Cl)nc3c2)cc1"
> 100 µM

Provide value of TGI for this record tested with T-47D breast: "Cc1cc2c(-c3nc4ccccn4c3NC34CC5CC(CC(C5)C3)C4)c(O)c(O)cc2c(O)c1-c1c(C)cc2c(-c3nc4ccccn4c3NC34CC5CC(CC(C5)C3)C4)c(O)c(O)cc2c1O"
2.49 µM

Lab note: need TGI for Cc1nn(C(=O)c2ccccc2O)c2c1C(c1ccc([N+](=O)[O-])cc1)SC(N)=N2 (centres undefined) on T-47D breast, anyone have it?
> 10 µM

# value lookup — system T-47D breast, readout TGI, item "Cc1nc2ccccc2n1Cc1ccc(NC(=S)Nc2ccccc2)cc1"
> 100 µM

Query for T-47D breast: what TGI does the record show for CSc1ncnc2c1cnn2Cc1cn(COCC(O)CO)nn1 (centres undefined) ?
> 100 µM

Write down the reported TGI of C=C1C[C@@H]2CC[C@@]34CC5O[C@H]6C(O[C@H]7CC[C@H](CC(=O)O[C@@H]8[C@@H](C)[C@@H]9O[C@@H]%10C[C@]%11(C[C@@H]%12O[C@]%13(C[C@H](C)[C@@H]%14O[C@@H]%15CC(C(COC(C)=O)OC(C)=O)O[C@@H]%15C[C@@H]%14O%13)C[C@H](C)[C@@H]%12O%11)O[C@@H]%10C[C@@H]9O[C@H]8CC8O[C@@H](CC[C@@H]1O2)C[C@@H](C)C8(O)CO)O[C@@H]7[C@@H]6O3)[C@H]5O4 (some centres undefined) , test system: T-47D breast.
> 0.924 µM

State its TGI on T-47D breast: "COc1ccc(CCn2ccc(=O)c(O)c2C)cc1OC"
85.7 µM

Given the entry "COc1ccc(-c2cn(-c3cc(OC)c(OC)c(OC)c3)c(=O)n2-c2ccccc2)cc1" , what TGI was observed with T-47D breast?
> 100 µM

----------
- Test system: SNB-75 CNS
- test_method_notes: NCI tumour cell line growth inhibition, 48 h
Answer condition not met if TGI is under 20 µM, and condition met if it is 20 µM or more.

As a guide, the following entries are already answered.
compound	answer_label
CCOP(=O)(COCCn1nc(Br)c(=O)[nH]c1=O)OCC	condition met
O=C1CN(c2ccccc2)C(=O)C1C(=O)Nc1ccc(Cl)c(Cl)c1 (centres undefined)	condition not met
O=c1ccn([C@@H]2C=C(CO)[C@@H](O)[C@H]2O)c(=O)[nH]1	condition met

Does TGI meet or surpass 20 µM for "CCOc1cccc(/C=N/NC(=O)Cc2ccc(Nc3ccnc(C(F)(F)F)c3)cc2)c1O" ?
condition met

API: above_or_equal(metric=TGI, cutoff=20 µM) for item "COc1cc2c(c(OC)c1OC)-c1ccc(SC)c(=O)cc1[C@@H](NC(=O)c1ccc(F)cc1)CC2"
condition not met

Could you tell me if the measured TGI of "CCOC(=O)C(=Cc1c(-c2ccccc2)[nH]c2ccccc12)C(=O)OCC" reaches 20 µM or more?
condition met

Reported TGI at or above 20 µM? "C/C(=C\CO)CC[C@@H]1[C@@]2(C)CCCC(C)(C)[C@@H]2CC[C@@]1(C)O"
condition met

Textbook exercise: given the entry CC(=O)N=S(NC(=O)c1ccc(C)cc1)C(Cl)(Cl)Cl (centres undefined) , state whether its TGI is greater than or equal to 20 µM.
condition met

Given the entry "CNc1ccc(N=Nc2cccc3ncccc23)cc1" , answer whether its TGI meets or surpasses 20 µM.
condition met

Hi team, for "C1=CC=C2NCCSCCNC3=CC=CC=CC3=NCCSCCN=C2C=C1" , is the recorded TGI at or above 20 µM?
condition met

# bool: TGI of "NC1(C(=O)O)CSSC1" >= 20 µM
condition met

Reported TGI reaches at least 20 µM for CN1C(=O)CC2(C)c3cc(C=O)ccc3N(C)C12 (centres undefined) ?
condition met

Record "CC(C)c1ccc2c(c1)c(SC(C)(C)C)c(CC(C)(C)C(=O)O)n2Cc1ccc(Cl)cc1" ; criterion: TGI no lower than 20 µM. Met?
condition met

Please indicate if the recorded TGI for "COc1ccc2c(c1)-c1nc(=S)n(CCN(C)C)c3ccc([N+](=O)[O-])c(c13)N2" meets or exceeds 20 µM.
condition not met

Is reported TGI greater than or equal to 20 µM here: "COc1ccc(-c2nn(-c3cccc(Cl)c3)cc2-c2cc(-c3cccs3)no2)cc1"
condition met

Could you please find out whether "C#CCn1cc(C=C2C(=O)NC(=S)NC2=O)c2cc(Cl)ccc21" has TGI that meets 20 µM or exceeds it?
condition not met

Check if TGI >= 20 µM (inclusive). Item: "CCOC(=O)c1cc(C(=O)O)c(=O)n2c1[nH]c1ccccc12"
condition met

Does TGI meet or surpass 20 µM for "C=C[C@@]1(C)CC(=O)[C@]2(O)[C@@]3(C)[C@@H](O)CCC(C)(C)[C@@H]3[C@H](O)[C@@H](OC(C)=O)[C@@]2(C)O1" ?
condition met

Form field: TGI at least 20 µM? Entry: CC1OC2OC3C(OCC(O)C3O)OC(=O)[C@]34CCC(C)(C)CC3C3=CCC5[C@@]6(C)C[C@H](O)[C@H](OC7OC(CO)C(O)C(O)C7OC7OC(COC(=O)CC(C)(O)CC(=O)OC1C(OC1OC(CO)C(O)C(O)C1O)C2O)C(O)C(O)C7O)[C@@](C)(CO)C6CC[C@@]5(C)[C@]3(C)CC4 (some centres undefined)
condition not met
